Reference source for all entries: patent US20070225334A1

Biological target: 5-HT2C receptor (Homo sapiens)
Sequence (P28335 33-458): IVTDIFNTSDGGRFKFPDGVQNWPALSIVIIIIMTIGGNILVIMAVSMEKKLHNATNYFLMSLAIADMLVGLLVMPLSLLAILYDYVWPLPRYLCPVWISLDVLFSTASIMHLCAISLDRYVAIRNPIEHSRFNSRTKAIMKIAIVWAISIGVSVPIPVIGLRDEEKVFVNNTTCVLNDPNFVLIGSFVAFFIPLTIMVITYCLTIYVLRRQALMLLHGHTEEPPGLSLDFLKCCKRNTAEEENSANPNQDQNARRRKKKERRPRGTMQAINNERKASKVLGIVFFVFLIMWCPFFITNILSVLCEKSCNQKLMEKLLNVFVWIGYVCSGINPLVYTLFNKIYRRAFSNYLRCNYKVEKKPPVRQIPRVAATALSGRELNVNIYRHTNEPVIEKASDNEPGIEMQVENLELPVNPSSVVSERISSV
Test: 5-HT2C receptor agonist function
reported_metric: EC50 (nM)
Report only the number, with the unit nM understood.

Name the recorded EC50 for NC[C@H]1Cc2cc(F)cc(-c3c(Cl)cccc3Cl)c2O1 (stereo in doubt) . 0.4

###

target: 5-HT2C receptor (Homo sapiens, UniProt P28335)
reported_metric: Ki (nM)
Expressed in nM, but write only the number.

So what does the record say about Ki for NC[C@H]1Cc2cc(F)cc(-c3c(Cl)cccc3Cl)c2O1 (stereo in doubt) ? 0.37
